target: HLA-A*2402 (human); assay: iTopia affinity;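 note: peptide binding to HLA-A*2402 measured in iTopia kit format across eight serial peptide dilutions, ED50 derived from the resulting titration curve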
Listed here: items and their measured ED50.
Reported property: ED50 (µM)

binder="YKALFKEIF [cdr2 422-430 YKALFKEIF]" measurement_unit=µM val=1.5
binder="QYSALKVKY [cdr2 352-360 QYSALKVKY]" measurement_unit=µM val=3.1
binder="TLLDRNTEL [cdr2 37-45 TLLDRNTEL]" measurement_unit=µM val=56
binder="HLKKTVTML [cdr2 197-205 HLKKTVTML]" measurement_unit=µM val=89
binder="EYKALFKEI [cdr2 421-429 EYKALFKEI]" measurement_unit=µM val=0.44
binder="VKQRGISLL [cdr2 338-346 VKQRGISLL]" measurement_unit=µM val=10
binder="QMLQSEHPF [cdr2 259-267 QMLQSEHPF]" measurement_unit=µM val=53
binder="TMLQAQLSL [cdr2 203-211 TMLQAQLSL]" measurement_unit=µM val=0.7
binder="SSLAGSDIV [cdr2 316-324 SSLAGSDIV]" measurement_unit=µM val=43
binder="AYRARALEL [cdr2 242-250 AYRARALEL]" measurement_unit=µM val=0.16
binder="LFKEIFSCI [cdr2 425-433 LFKEIFSCI]" measurement_unit=µM val=0.075
binder="KILSLTETI [cdr2 111-119 KILSLTETI]" measurement_unit=µM val=1.5
binder="IFSCIKKTK [cdr2 429-437 IFSCIKKTK]" measurement_unit=µM val=8.6
binder="PFVNGVEKL [cdr2 266-274 PFVNGVEKL]" measurement_unit=µM val=1.4
binder="QHAKVYEQL [cdr2 79-87 QHAKVYEQL]" measurement_unit=µM val=10
binder="YLTKQVELL [cdr2 65-73 YLTKQVELL]" measurement_unit=µM val=1.9
